- MEASURED TARGET: biotinylated extracellular domain of the human GIP receptor (bioGIPR) (human) (UniProt P48546)
- Sequence (P48546 24-138 limits assumed): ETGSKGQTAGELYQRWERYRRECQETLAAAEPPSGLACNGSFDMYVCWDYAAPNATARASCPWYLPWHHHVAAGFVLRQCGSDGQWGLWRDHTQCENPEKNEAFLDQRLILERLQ
- TEST: SPR single cycle kinetics, bioGIPR captured on chip; category B: pKD 8.1-9.0
*1 amine or outer side, *2 acyl side, *3 side chain or, on linkers, in order; H or OH if unused. Bridges are numbered along the chain shown (N, C = ends). [ ]: non-standard residue; d: D form. Trp(5-Cl) = N[C@@H](Cc1c[nH]c2ccc(Cl)cc12)C(=O)O; Pyridine(2,6-diCH2) = c1cc(C[*:1])nc(C[*:2])c1; Hyp = O=C(O)[C@@H]1C[C@@H](O)CN1; Thp = NC1(C(=O)O)CCOCC1

{"BINDER": "Ac-DW[Trp(5-Cl)][Hyp]K[dL]C[Thp]LIC-NH2 (linker 7-11 via Pyridine(2,6-diCH2); SMILES CC[C@H](C)[C@@H]1NC(=O)[C@H](CC(C)C)NC(=O)C2(CCOCC2)NC(=O)[C@@H](NC(=O)[C@@H](CC(C)C)NC(=O)[C@H](CCCCN)NC(=O)[C@@H]2C[C@@H](O)CN2C(=O)[C@H](Cc2c[nH]c3ccc(Cl)cc23)NC(=O)[C@H](Cc2c[nH]c3ccccc23)NC(=O)[C@H](CC(=O)O)NC(C)=O)CSCc2cccc(n2)CSC[C@@H](C(N)=O)NC1=O) [Ac-Asp-Trp-5Clw-Hyp-Lys-leu-[Cys(2Lut)-Thp-Leu-Ile-Cys]-NH2]", "pKD": "8.1 to 9 pkd"}
